# Assay type: in vivo, human
# test_settings: male, human, in vivo, po, 9.6 g
assay_endpoint: Tmax (h)
Number only, in h; omit the unit.

Q: May I ask what Tmax has been recorded for O=C(O)[C@H]1O[C@@H](Oc2cc3oc(-c4ccccc4)cc(=O)c3c(O)c2O)[C@H](O)[C@@H](O)[C@@H]1O [Baicalin, baicalin] ?
Ans: 7.99

---

# experiment_notes: Freeze-thaw stability in human plasma
# Type: in vitro ADME
# test_settings: −80 °C/25 °C, spiked conc. 2 ng/mL, mean ± SD, n = 5, %
assay_endpoint: Freeze-thaw stability (3 cycles) (%)
Number only, in %; omit the unit.

[
  {
    "molecule": "O=C(O)[C@H]1O[C@@H](Oc2cc3oc(-c4ccccc4)cc(=O)c3c(O)c2O)[C@H](O)[C@@H](O)[C@@H]1O [Baicalin, baicalin]",
    "Freeze-thaw stability (3 cycles) [%]": 99.53
  },
  {
    "molecule": "OCC1=C[C@@H](O)[C@@H]2C=CO[C@@H](O[C@@H]3O[C@H](CO)[C@@H](O)[C@H](O)[C@H]3O)[C@H]12 [Aucubin, aucubin]",
    "Freeze-thaw stability (3 cycles) [%]": 97.78
  },
  {
    "molecule": "CC1(C)O[C@H]1COc1c2ccoc2cc2oc(=O)ccc12 [Oxypeucedanin, oxypeucedanin]",
    "Freeze-thaw stability (3 cycles) [%]": 100.16
  }
]

Q: May I ask what Freeze-thaw stability (3 cycles) has been recorded for O=c1ccc2cc3ccoc3c(O)c2o1 [Xanthotoxol, xanthotoxol] ?
Ans: 102.24

---

# Format: in vivo, human
# test_settings: male, human, in vivo, po, 9.6 g
assay_endpoint: AUC(0-inf) (µg·h/mL)
Number only, in µg·h/mL; omit the unit.

Q: May I ask what AUC(0-inf) has been recorded for `O=C(O)[C@H]1O[C@@H](Oc2cc3oc(-c4ccccc4)cc(=O)c3c(O)c2O)[C@H](O)[C@@H](O)[C@@H]1O` ?
Ans: 805

---

# Type: in vivo, human
# test_settings: male, human, in vivo, po, 9.6 g
assay_endpoint: Cmax (ng/mL)
Number only, in ng/mL; omit the unit.

Q: May I ask what Cmax has been recorded for `O=C(O)[C@H]1O[C@@H](Oc2cc3oc(-c4ccccc4)cc(=O)c3c(O)c2O)[C@H](O)[C@@H](O)[C@@H]1O` ?
Ans: 34300

---

# experiment_notes: Freeze-thaw stability in human plasma
# Type: in vitro ADME
# test_settings: −80 °C/25 °C, spiked conc. 2 ng/mL, mean ± SD, n = 5, %
Reported Freeze-thaw stability (3 cycles) values are given for each entry in this list.
Returns: string containing the number followed by the unit.

[
  {
    "compound": "O=c1cc(-c2ccccc2)oc2cc(O)c(O)c(O)c12",
    "Freeze-thaw stability (3 cycles)": "96.92 ± 5.31%"
  },
  {
    "compound": "CC1(C)[C@@H](O[C@H]2O[C@H](C(=O)O)[C@@H](O)[C@H](O)[C@H]2O[C@@H]2O[C@H](C(=O)O)[C@@H](O)[C@H](O)[C@H]2O)CC[C@]2(C)[C@H]3C(=O)C=C4[C@@H]5C[C@@](C)(C(=O)O)CC[C@]5(C)CC[C@@]4(C)[C@]3(C)CC[C@@H]12",
    "Freeze-thaw stability (3 cycles)": "97.58 ± 4.38%"
  },
  {
    "compound": "CC(C)=CCOc1c2occc2cc2ccc(=O)oc12",
    "Freeze-thaw stability (3 cycles)": "98.44 ± 2.60%"
  },
  {
    "compound": "CC(C)=CC(O)C/C(C)=C/COc1c2ccoc2cc2oc(=O)ccc12 (stereo not drawn)",
    "Freeze-thaw stability (3 cycles)": "97.79 ± 3.42%"
  }
]

Q: May I ask what Freeze-thaw stability (3 cycles) has been recorded for C=C1CCC[C@]2(C)C[C@]3(O)OC(=O)C(C)=C3C[C@@H]12 [Atractylenolide III, atractylenolide III] ?
Ans: 99.57 ± 2.04%

Q: Subsequent entry: `OC[C@H]1O[C@@H](O[C@@H]2OC=C[C@H]3[C@H](O)[C@@H]4O[C@]4(CO)[C@@H]23)[C@H](O)[C@@H](O)[C@@H]1O`
Ans: 101.28 ± 2.95%
